src = patent US20240327428A1

# System: HIV-1IIIB
# measurement-notes: Inhibition of HIV-1IIIB infection in MT-4 cells (XTT staining)
# Type: cell-based
# study-conditions: HIV-1IIIB in MT-4 cells
value-kind: Therapeutic Index (TC50/EC50)

compound	value-kind	measured-value
COCCNc1nc2nc([C@H](Cc3cc(F)cc(F)c3)NC(=O)Cn3nc(C(F)(F)F)c4c3C(F)(F)[C@@H]3C[C@H]43)n(-c3ccc(Cl)c4c(NS(C)(=O)=O)nn(C)c34)c(=O)c2s1	Therapeutic Index (TC50/EC50)	>510.2
Cn1nc(NS(C)(=O)=O)c2c(Cl)ccc(-n3c([C@H](Cc4cc(F)cc(F)c4)NC(=O)Cn4nc(C(F)(F)F)c5c4C(F)(F)[C@@H]4C[C@H]54)nc4onc(-c5ccccc5)c4c3=O)c21 (atropisomer, axis not shown)	Therapeutic Index (TC50/EC50)	>9.0
Cn1nc(NS(C)(=O)=O)c2c(Cl)ccc(-n3c([C@H](Cc4cc(F)cc(F)c4)NC(=O)Cn4nc(C(F)(F)F)c5c4C(F)(F)[C@@H]4C[C@H]54)nc4nc(N5CCOC(C)(C)C5)sc4c3=O)c21 (atropisomer, axis not shown)	Therapeutic Index (TC50/EC50)	>492.6
Cn1nc(NS(C)(=O)=O)c2c(Cl)ccc(-n3c([C@H](Cc4cc(F)cc(F)c4)NC(=O)Cn4nc(C(F)(F)F)c5c4C(F)(F)[C@@H]4C[C@H]54)nc4nc(N5CC6(COC6)C5)sc4c3=O)c21 (atropisomer, axis not shown)	Therapeutic Index (TC50/EC50)	>193.4
Cn1nc(NS(C)(=O)=O)c2c(Cl)ccc(-n3c([C@H](Cc4cc(F)cc(F)c4)NC(=O)Cn4nc(C(F)(F)F)c5c4C(F)(F)[C@@H]4C[C@H]54)nc4nc(N5CCOCC5)sc4c3=O)c21	Therapeutic Index (TC50/EC50)	>518.1

Quick note, Therapeutic Index (TC50/EC50) for Cc1nsc2nc([C@H](Cc3cc(F)cc(F)c3)NC(=O)Cn3nc(C(F)(F)F)c4c3C(F)(F)[C@@H]3C[C@H]43)n(-c3ccc(Cl)c4c(NS(C)(=O)=O)nn(C)c34)c(=O)c12 (atropisomer, axis not shown) [Compound 44] landed at >2.9
